Measured pKd, listed per entry.
- system.tested: JAK2 JH2 WT (V536-D812) [W659A, W777A, F794H solubilizing mutations] (Homo sapiens, UniProt O60674, F794H/W659A/W777A)
- Construct: **JAK2 JH2 WT (V536-D812) [W659A, W777A, F794H solubilizing mutations]; C-thrombin-avi-His6; thrombin cleavage site (C); His6 (C); purchased Biortus
- Sequence (O60674 536-812 W659A/W777A/F794H): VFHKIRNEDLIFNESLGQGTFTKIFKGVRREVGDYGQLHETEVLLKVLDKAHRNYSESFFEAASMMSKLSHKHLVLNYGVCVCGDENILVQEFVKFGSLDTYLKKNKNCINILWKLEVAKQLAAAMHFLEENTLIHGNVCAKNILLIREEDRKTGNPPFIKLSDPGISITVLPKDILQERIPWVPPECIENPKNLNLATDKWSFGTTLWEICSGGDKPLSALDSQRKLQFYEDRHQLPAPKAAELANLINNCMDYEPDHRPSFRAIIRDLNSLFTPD
- test.summary: Surface Plasmon Resonance (SPR) binding assay, JAK2 JH2 domain
- conditions.used: SPR, JAK2 JH2 domain
pKd: −log10 of the molar value.

CNC(=O)c1nnc(NC(=O)C2CC2)cc1Nc1ccc(C)c(-c2cnc(C(=O)N(C)C[C@H]3CCN(C)C3=O)c(F)c2)c1OC (single isomer, unassigned)
8.00 to 11.00
CNC(=O)c1nnc(NC(=O)C2CC2)cc1Nc1cccc(-c2ccc(C(=O)N(C)Cc3ccns3)nc2)c1OC
8.00 to 11.00
CNC(=O)c1nnc(NC(=O)C2CC2)cc1Nc1cccc(-c2ccc(C(=O)N(C)Cc3cccnc3)nc2)c1OC
8.00 to 11.00
CNC(=O)c1nnc(NC(=O)C2CC2)cc1Nc1cccc(-c2ccc(C(=O)N(C)Cc3cc(C#N)ccn3)nc2)c1OC
8.00 to 11.00
CNC(=O)c1nnc(NC(=O)C2CC2)cc1Nc1cccc(-c2cnn(C3CN(Cc4cc(C)ccn4)C3)c2)c1OC
8.00 to 11.00
CNC(=O)c1nnc(NC(=O)C2CC2)cc1Nc1cccc(-c2ccc(C(=O)N(C)C[C@@H]3CCCO3)nc2)c1OC (single isomer, unassigned)
7.30 to 8.00

IN: Return reported pKd; argument: CNC(=O)c1nnc(NC(=O)C2CC2)cc1Nc1cccc(-c2cnn(C3CN(CC4(C#N)CC4)C3)c2)c1OC
OUT: 8.00 to 11.00

IN: Entry CCn1cncc1CN(C)C(=O)c1ccc(-c2cccc(Nc3cc(NC(=O)C4CC4)nnc3C(=O)NC)c2OC)cn1 : reported pKd = ?
OUT: 8.00 to 11.00

IN: Please report the recorded pKd for CNC(=O)c1nnc(NC(=O)C2CC2)cc1Nc1cccc(-c2cnn(C3CN(Cc4nccc(C)n4)C3)c2)c1OC .
OUT: 8.00 to 11.00

IN: For the compound shown here, C#Cc1cccc(CN2CC(n3cc(-c4cccc(Nc5cc(NC(=O)C6CC6)nnc5C(=O)NC)c4OC)cn3)C2)n1 , give the reported pKd.
OUT: 8.00 to 11.00

IN: Quick one: pKd for CNC(=O)c1nnc(NC(=O)C2CC2)cc1Nc1ccc(C)c(-c2ccc(C(=O)N(C)Cc3cc(C#N)ccn3)cc2)c1OC ?
OUT: 8.00 to 11.00

IN: Request the reported pKd associated with CNC(=O)c1nnc(NC(=O)C2CC2)cc1Nc1cccc(-c2ccc(C(=O)N(C)[C@H](C)c3cc(C#N)ccn3)nc2)c1OC (single isomer, unassigned)
OUT: 8.00 to 11.00

IN: Recorded pKd of CNC(=O)c1nnc(NC(=O)C2CC2)cc1Nc1cccc(-c2nnc(C3CN(Cc4ccccn4)C3)o2)c1OC , please.
OUT: 7.30 to 8.00
